Task for the reader: assign each of the following compounds its reported pIC50.
molecular target: full-length beta-Catenin (Uniprot ID P35222) (Homo sapiens); construct: 10 nM full-length beta-Catenin (Uniprot ID P35222); assay: Fluorescence polarization IC50 (beta-catenin / 5FAM-TCF4 10-53 competition); format: binding; settings: read-out: beta-Catenin FP IC50
Sequence (P35222 whole entry, one chain of several): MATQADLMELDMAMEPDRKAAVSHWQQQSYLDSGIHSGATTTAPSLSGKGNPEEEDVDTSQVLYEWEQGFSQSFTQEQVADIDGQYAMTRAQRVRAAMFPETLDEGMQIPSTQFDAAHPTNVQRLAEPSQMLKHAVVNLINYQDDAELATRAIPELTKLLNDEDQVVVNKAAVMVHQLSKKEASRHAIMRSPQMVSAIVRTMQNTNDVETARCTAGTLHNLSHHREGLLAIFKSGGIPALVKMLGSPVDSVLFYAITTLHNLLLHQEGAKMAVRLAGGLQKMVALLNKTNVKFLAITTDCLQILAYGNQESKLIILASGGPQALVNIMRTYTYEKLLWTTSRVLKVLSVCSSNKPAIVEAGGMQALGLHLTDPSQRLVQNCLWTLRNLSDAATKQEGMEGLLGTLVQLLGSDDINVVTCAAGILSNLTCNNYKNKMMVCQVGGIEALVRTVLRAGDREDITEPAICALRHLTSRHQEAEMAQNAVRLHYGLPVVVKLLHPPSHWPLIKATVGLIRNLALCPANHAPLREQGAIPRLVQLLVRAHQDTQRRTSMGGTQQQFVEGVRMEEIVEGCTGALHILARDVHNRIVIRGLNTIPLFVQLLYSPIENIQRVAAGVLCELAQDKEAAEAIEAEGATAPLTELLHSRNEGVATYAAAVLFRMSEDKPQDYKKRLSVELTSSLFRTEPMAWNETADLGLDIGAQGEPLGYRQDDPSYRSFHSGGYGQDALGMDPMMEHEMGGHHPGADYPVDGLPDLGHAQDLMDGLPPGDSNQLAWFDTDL
Reminder that pIC50 means the negative base-10 logarithm of the concentration expressed in mol/L.

Quick note, pIC50 for CC(=O)N1CCC[C@]12CC=CCCCC1(CCCC=CCCCOC(=O)N3CC[C@@](C(=O)N[C@@H](Cc4ccccc4Cl)C(=O)N[C@@H](Cc4csc5ccccc45)C(=O)N[C@@H](CO)C(N)=O)(C3)NC(=O)[C@H](CC(C)C)NC(=O)[C@H](Cc3ccccc3)NC(=O)[C@H](C)NC(=O)[C@H](C)NC(=O)[C@H](CC(=O)O)NC(=O)[C@H](CC(=O)O)NC1=O)NC(=O)[C@H](Cc1cccc3ccccc13)NC(=O)[C@H](CC(=O)O)NC2=O (some centres unmarked) landed at 7.40

Quick note, pIC50 for CC(=O)N1CCC[C@]12CC=CCCCC1(CCCC=CCCCOC(=O)N3CC[C@@](C(=O)N[C@@H](Cc4csc5ccccc45)C(=O)N[C@@H](Cc4csc5ccccc45)C(=O)N[C@@H](Cc4c[nH]cn4)C(N)=O)(C3)NC(=O)[C@H](CC(N)=O)NC(=O)[C@H](Cc3ccccc3)NC(=O)[C@H](C)NC(=O)[C@H](C)NC(=O)[C@H](CC(=O)O)NC(=O)[C@H](CC(=O)O)NC1=O)NC(=O)[C@H](CC(C)(C)C)NC(=O)[C@H](CC(=O)O)NC2=O (some centres unmarked) landed at 7.85

* * *

target: beta-catenin/TCF4 engagement (Homo sapiens, UniProt P35222); construct: expressed in transfected cells; host or cells: HEK293; test: Nano-BRET target engagement assay (B-cat-Halo & TCF4-Luc in HEK293 cells); type: cell-based; conditions: read-out: NanoBRET IC50
Sequence (P35222 whole entry): as the sequence (P35222 whole entry, one chain of several) above
reported_metric: pIC50
Reminder that pIC50 means the negative base-10 logarithm of the concentration expressed in mol/L.

Quick note, pIC50 for CC(=O)N1CCC[C@]12CC=CCCCC1(CCCC=CCCCOC(=O)N3CC[C@@](C(=O)N[C@@H](Cc4ccsc4)C(=O)N[C@@H](Cc4csc5ccccc45)C(N)=O)(C3)NC(=O)[C@H](CC(N)=O)NC(=O)[C@H](Cc3ccccc3)NC(=O)[C@H](C)NC(=O)[C@H](C)NC(=O)[C@H](CCC(=O)O)NC(=O)[C@H](CC(=O)O)NC1=O)NC(=O)[C@H](CC(C)(C)C)NC(=O)[C@H](CC(=O)O)NC2=O (some centres unmarked) [I-786] landed at 4.77

Quick note, pIC50 for CC(=O)N1CCC[C@]12CC=CCCCC1(CCCC=CCCCCCC[C@@](C)(C(=O)N[C@@H](Cc3ccsc3)C(=O)N[C@@H](Cc3csc4ccccc34)C(=O)N[C@@H](CCC(N)=O)C(N)=O)NC(=O)[C@H](CC(N)=O)NC(=O)[C@H](Cc3ccccc3)NC(=O)[C@H](C)NC(=O)[C@H](C)NC(=O)[C@H](CN(CC(=O)O)CC(F)(F)F)NC(=O)[C@H](CC(=O)O)NC1=O)NC(=O)[C@H](CC(C)(C)C)NC(=O)[C@H](CC(=O)O)NC2=O (some centres unmarked) [I-704] landed at 5.10

Quick note, pIC50 for CC(=O)N1CCC[C@]12CC=CCCCC1(CCCC=CCCCOC(=O)N3CC[C@@](C(=O)N[C@@H](Cc4cccc(Cl)c4)C(=O)N[C@@H](Cc4csc5ccccc45)C(=O)N[C@@H](CCC(N)=O)C(N)=O)(C3)NC(=O)[C@H](CC(N)=O)NC(=O)[C@H](Cc3ccccc3)NC(=O)[C@H](C)NC(=O)[C@H](C)NC(=O)[C@H](CN(CC(=O)O)CC(F)(F)F)NC(=O)[C@H](CC(=O)O)NC1=O)NC(=O)[C@H](CC(C)(C)C)NC(=O)[C@H](CC(=O)O)NC2=O (some centres unmarked) [I-926] landed at 4.77

Quick note, pIC50 for CC(=O)N1CCC[C@]12CC=CCCCC1(CCCC=CCCCOC(=O)N3CC[C@@](C(=O)N[C@@H](Cc4ccsc4)C(=O)N[C@@H](Cc4csc5ccccc45)C(=O)N[C@@H](CCC(N)=O)C(N)=O)(C3)NC(=O)[C@H](CC(N)=O)NC(=O)[C@H](Cc3ccccc3)NC(=O)[C@H](C)NC(=O)[C@H](C)NC(=O)[C@H](Cc3c[nH]cn3)NC(=O)[C@H](CC(=O)O)NC1=O)NC(=O)[C@H](CC(C)(C)C)NC(=O)[C@H](CC(=O)O)NC2=O (some centres unmarked) [I-864] landed at 4.54
